Target: T1, human TREM2 (human) (UniProt Q9NZC2)
T1 sequence (looked up): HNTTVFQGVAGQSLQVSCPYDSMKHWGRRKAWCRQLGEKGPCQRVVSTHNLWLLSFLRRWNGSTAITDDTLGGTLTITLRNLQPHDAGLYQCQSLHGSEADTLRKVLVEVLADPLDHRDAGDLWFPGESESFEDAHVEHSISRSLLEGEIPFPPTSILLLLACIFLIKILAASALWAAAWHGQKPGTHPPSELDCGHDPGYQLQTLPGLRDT
Assay: 2nd screen, 100 nM Ab
Reported values of Binding Signal (fold over 6E7 parental antibody) for individual entries
Enter your answer as a number in fold; do not include the unit.

6E7 variant V58 (antibody, V domains shown) VH: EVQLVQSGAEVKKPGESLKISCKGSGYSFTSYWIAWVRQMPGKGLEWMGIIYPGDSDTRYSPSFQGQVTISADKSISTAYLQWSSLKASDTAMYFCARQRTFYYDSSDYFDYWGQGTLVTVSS VL: DIQMTQSPSSVSASVGDRVTITCRASQGISSWLAWYQQKPGKAPKLLIYKASSLQNGVPSRFSGSGSGTDFTLTISSLQPEDFATYFCQQADSFPRTFGQGTKLEIK = 0.68
6E7 variant V70 (antibody, V domains shown) VH: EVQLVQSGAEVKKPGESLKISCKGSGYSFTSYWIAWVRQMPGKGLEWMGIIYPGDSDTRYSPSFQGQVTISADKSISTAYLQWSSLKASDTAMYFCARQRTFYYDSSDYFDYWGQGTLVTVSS VL: DIQMTQSPSSVSASVGDRVTITCRASQGISSWLAWYQQKPGKAPKLLIYAAGSLQNGVPSRFSGSGSGTDFTLTISSLQPEDFATYFCQQADSFPRTFGQGTKLEIK = 0.84

// query Request the reported Binding Signal (fold over 6E7 parental antibody) associated with 6E7 variant V80 (antibody, V domains shown) VH: EVQLVQSGAEVKKPGESLKISCKGSGYSFTSYWIAWVRQMPGKGLEWMGIIYPGDSDTRYSPSFQGQVTISADKSISTAYLQWSSLKASDTAMYFCARQRNFYYDSSDYFDYWGQGTLVTVSS VL: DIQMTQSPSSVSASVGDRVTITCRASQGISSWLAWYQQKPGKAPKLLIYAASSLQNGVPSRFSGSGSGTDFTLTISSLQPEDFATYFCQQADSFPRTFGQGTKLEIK
// result 0.5
